From: PubChem BioAssay (NCI)

# Tested on: A549/ATCC NSCLC
# Protocol description: NCI-60 one-dose screen, 48 h
# Assay setup: 10 µM unless noted
This is part of a sample that, as a whole, favours compounds with a hit. Of some 83,000 tested, about 20% had one in any assay. Calls of active or inactive are those of the source. How the source made its calls: active means growth percent below 10; inactive means the rest.
Classes used: True for active, False for inactive

Compound: Clc1ccc2c(c1)-c1ccccc1C1=NCCN12
Qualitative label: False
--
Compound: Cn1nc(C(F)(F)F)cc1-c1cc(Cl)c(OCc2ccc(Cl)cc2)c(-c2ccc(Cl)c(C(F)(F)F)c2)c1O
Qualitative label: False
--
Compound: NC(=O)Nc1ccc2ncnc(Nc3cccc(O)c3)c2c1
Qualitative label: False
--
Compound: COc1ccc(/C(=C\c2cc(OC)c(OC)c(OC)c2)C(=O)N2CCN(c3ccccc3)CC2)cc1O
Qualitative label: False
--
Compound: C/C(=N\OC(=O)Nc1cccc(Cl)c1)c1ccccc1
Qualitative label: False
--
Compound: CCNC(=S)N(Cc1ccccc1)Cc1ccccc1
Qualitative label: False
--
Compound: CCOC(=O)c1ccc(NC(=O)NC2=NCCS2)cc1
Qualitative label: False
--
Compound: COc1cc(C2=NOC(c3cc(OC)c(OC)c(OC)c3)C2)ccc1OCCCCOc1cc2c(cc1OC)C(=O)N1CCC[C@H]1C=N2 (stereo partly drawn)
Qualitative label: True
--
Compound: CN(C)c1ccc(/C=N/Nc2nnc3n2N=C(c2ccc(Cl)cc2)CS3)cc1
Qualitative label: False
--
Compound: CCCc1cc2c(cc1CN(Cc1cc3c(cc1CCC)OCO3)C(=N)OCC)OCO2
Qualitative label: False
--
Compound: COc1ccc(/C=C2\N=C(c3cccnc3)N(c3ccccc3)NC2=O)cc1
Qualitative label: False
--
Compound: CCN(CC)CCCCCCCNc1cc(OC)cc2c(C)ccnc12
Qualitative label: False
--
Compound: COc1ccc(NC(=O)/C=C/c2ccc(NC(=O)N3CCCC3)cc2)cn1
Qualitative label: False

* * *

# Test system: NCI-H23 lung
# Protocol description: NCI-60 one-dose screen, 48 h (100 = growth as untreated, 0 = no growth, -100 = all killed)
# Assay setup: 10 µM unless noted
The panel holds about 83,000 compounds, 20% with a hit somewhere; the sample as a whole holds those more often.

Molecule: COC(=O)CNS(=O)(=O)c1ccc2c(c1)Cc1cc(S(=O)(=O)NCC(=O)OC)ccc1-2
Measurement target: NCI-H23 lung
Unit spec: %
growth: 107
//
Molecule: COc1ccc(C2CC(c3cccc(Nc4ccnc5cc(Cl)ccc45)c3)=NN2c2ccccc2)cc1 (stereo unspecified)
Measurement target: NCI-H23 lung
Unit spec: %
growth: 80
//
Molecule: Cn1c(=O)c2c3c(oc2c2ccccc21)C(=O)c1ccccc1C3=O
Measurement target: NCI-H23 lung
Unit spec: %
growth: 78.3
//
Molecule: COc1cc(-c2nc(-c3nc4cc(C(=O)c5ccccc5)ccc4[nH]3)cc3c2[nH]c2ccccc23)cc(OC)c1OC
Measurement target: NCI-H23 lung
Unit spec: %
growth: 104
//
Molecule: O=C(/C=C/c1ccccc1)C(Br)C(Br)c1ccccc1 (stereo unspecified)
Measurement target: NCI-H23 lung
Unit spec: %
growth: 29.4
//
Molecule: Oc1c(-c2cc(C(F)(F)F)[nH]n2)cc(Cl)c(OCc2ccc(Cl)cc2)c1-c1ccc(Cl)c(C(F)(F)F)c1
Measurement target: NCI-H23 lung
Unit spec: %
growth: 6
//
Molecule: CO[C@@]12[C@@H]3NC3CN1C1=C(C(=O)C(N)=C(C)C1=O)[C@@H]2COC(N)=O (stereo partly specified)
Measurement target: NCI-H23 lung
Unit spec: %
growth: -3.61
//
Molecule: Cc1ccccc1CNc1ncnc2[nH]ncc12
Measurement target: NCI-H23 lung
Unit spec: %
growth: 109
//
Molecule: CCOC(=O)c1ccc(NCCC(=O)O)cc1
Measurement target: NCI-H23 lung
Unit spec: %
growth: 107
//
Molecule: COc1c(B(O)O)cccc1-c1nc2c(F)cc3n[nH]c(C)c3c2c2c1CCCC2
Measurement target: NCI-H23 lung
Unit spec: %
growth: 17.5
//
Molecule: CCCCn1c(C)nc2ccc(Nc3nc(Cl)nc4nc[nH]c34)cc21
Measurement target: NCI-H23 lung
Unit spec: %
growth: 75.3
//
Molecule: C=C(C)[C@@H]1CC[C@]2(C)[C@H](CC=C3[C@@H]4C[C@](C)(C(=O)N5CCN(C)CC5)CC[C@]4(C)CC[C@]32C)[C@@]1(C)CCC#N
Measurement target: NCI-H23 lung
Unit spec: %
growth: 72.5
//
Molecule: COCCCNCC(=O)Nc1c(C)cccc1C
Measurement target: NCI-H23 lung
Unit spec: %
growth: 110
//
Molecule: CCN(CC)c1ccc2nc3c4ccccc4c(=O)cc-3n(-c3ccccc3)c2c1
Measurement target: NCI-H23 lung
Unit spec: %
growth: -3.45
//
Molecule: CNCc1ccccc1CN(CC(=O)Nc1ccc2c(c1)CC1(C2)C(=O)Nc2ncccc21)C(=O)C(C)(C)C (stereo unspecified)
Measurement target: NCI-H23 lung
Unit spec: %
growth: 103
//
Molecule: CC(CN1CCN(C)CC1)CN1c2ccccc2Sc2ccc(C(F)(F)F)cc21 (stereo unspecified)
Measurement target: NCI-H23 lung
Unit spec: %
growth: 74.3
